Source: paper PMC10397247

- Tested System: T1, 4H780-bN
- T1 chain: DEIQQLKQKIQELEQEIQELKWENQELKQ
- Protocol Summary: two-hybrid library CCNG1;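 also: natural log of median RNA to DNA barcode read ratio; higher means stronger binding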
Property Measured: interaction score

[A] DEIQQLKQKIQELEQEIQELKWENQELKQ [4H780-bN]
[B] DEIQQLEQENQELEQKIQELKWEIQELKQ [4H170-bN]
Ask: # returns the entry with the larger interaction score; inputs A and B Respond using the label that marks the chosen record.
Reply: A
(A: 1.99, B: -0.283)

[A] DKNQQLEQKIQELKQKIQELEWENQELEQ [4H3427-bN]
[B] DEIQQLEQEIQELKQKNQELEWKIQELKQ [4H118-bN]
Ask: # returns the entry with the larger interaction score; inputs A and B Respond using the label that marks the chosen record.
Reply: B
(B: -0.129, A: -1.3)

[I] DKNQQLKQKNQELKQKIQELKWEIQELEQ [4H4073-bN]
[II] DEIQQLEQEIQELKQKIQELKWKNQELKQ [4H112-bN]
[III] DKIQQLKQENQELEQEIQELKWKIQELKQ [4H2702-bN]
[IV] DENQQLEQENQELEQEIQELEWKIQELKQ [4H1158-bN]
Ask: With regard to interaction score, arrange the entries in ascending order, please. Please respond by ranking the labels in the order requested.
Reply: I, III, IV, II

[1] DENQQLEQEIQELEQKNQELKWEIQELEQ [4H1081-bN]
[2] DEIQQLKQENQELKQKNQELEWEIQELKQ [4H754-bN]
Ask: # returns the entry with the larger interaction score; inputs 1 and 2 Respond using the label that marks the chosen record.
Reply: 2
(2: 0.164, 1: -1.12)
